Taken from patent US20230212164A1.

# Target system: KRASG12-dependent Ba/F3 cells (Homo sapiens, UniProt P01116, G12C, cells depend on it)
# Sequence (P01116 whole entry G12C): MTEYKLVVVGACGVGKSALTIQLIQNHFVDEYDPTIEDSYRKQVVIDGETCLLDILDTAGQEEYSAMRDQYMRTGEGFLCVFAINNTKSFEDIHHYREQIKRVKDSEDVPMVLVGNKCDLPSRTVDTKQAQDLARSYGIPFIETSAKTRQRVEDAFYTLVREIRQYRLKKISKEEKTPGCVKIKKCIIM
# Test protocol: Ba/F3 cell model proliferation assay (AlamarBlue, 72 h)
# Format: cell-based
# Experimental conditions: Ba/F3 cells transduced with KRASG12C, read-out: IC50 Ba/F3 KRASG12C
Please use 1 for GI50 under 7 nM and 0 for everything else, ties included.

Use these answered entries as a reference point.
| Chem smiles | Target system | Class |
| --- | --- | --- |
| C/C=C/C(=O)N1CCN(c2cc(-c3noc([C@@]4(C)CCCc5sc(N)c(C#N)c54)n3)nc(O[C@@H](C)[C@@H]3CCCN3C)n2)CC12CC2 | KRASG12-dependent Ba/F3 cells (Homo sapiens, UniProt P01116, G12C, cells depend on it) | 0 |
| C=CC(=O)N1CCN(c2cc(O[C@@H](C)[C@@H]3CCCN3C)nc(-c3noc([C@@]4(C)CCCc5sc(N)c(C#N)c54)n3)c2)CC12CCC2 | KRASG12-dependent Ba/F3 cells (Homo sapiens, UniProt P01116, G12C, cells depend on it) | 0 |
| C=CC(=O)N1CCN(c2cc(-c3noc([C@@]4(C)CCCc5sc(N)c(C#N)c54)n3)nc(O[C@@H](C)[C@@H]3CCCN3C)n2)[C@@H](C)C1 | KRASG12-dependent Ba/F3 cells (Homo sapiens, UniProt P01116, G12C, cells depend on it) | 1 |
| C=CC(=O)N1CCN(c2cc(-c3noc([C@@]4(C)CCCc5sc(N)c(C#N)c54)n3)nc(O[C@@H](C)[C@@H]3CC[C@H](C)N3C)n2)CC1 | KRASG12-dependent Ba/F3 cells (Homo sapiens, UniProt P01116, G12C, cells depend on it) | 1 |
| C=CC(=O)N1CCN(c2cc(O[C@@H](C)[C@@H]3CCCN3C)nc(-c3noc([C@@]4(C)CCCc5sc(N)c(C#N)c54)n3)n2)CC1 | KRASG12-dependent Ba/F3 cells (Homo sapiens, UniProt P01116, G12C, cells depend on it) | 1 |

Could you now look at the following compound, please?
(Q) Please determine if C=CC(=O)N1CCN(c2cc(O[C@@H]3CCN(C)C3)nc(-c3noc([C@@]4(C)CCCc5sc(N)c(C#N)c54)n3)c2)CC1 is below 7 nM in terms of GI50.
(A) 0

====

# Target system: KRASG12-dependent Ba/F3 cells (Homo sapiens, UniProt P01116, G12C, cells depend on it)
# Test protocol: Ba/F3 cell model proliferation assay (AlamarBlue, 72 h)
# Format: cell-based
# Experimental conditions: Ba/F3 cells transduced with KRASG12C, read-out: IC50 Ba/F3 KRASG12C
Entries and their measured log10 GI50 follow.
For clarity, the numbers are log10 values of GI50 expressed in nM.

| Compound | log10 GI50 |
| --- | --- |
| C/C=C/C(=O)N1CCN(c2cc(-c3noc([C@@]4(C)CCCc5sc(N)c(C#N)c54)n3)nc(O[C@@H](C)[C@@H]3CCCN3C)n2)CC1 | 2.43 |
| C=CC(=O)N1CCC(Oc2cc(-c3noc(C4(C)CCCc5sc(N)c(C#N)c54)n3)nc(N3CCC4(CCN(C)CC4)CC3)c2)CC1 (stereo not drawn) | 2.85 |

(Q) Request: log10 GI50, test system KRASG12-dependent Ba/F3 cells (Homo sapiens, UniProt P01116, G12C, cells depend on it), entry C=CC(=O)N1CCN(c2cc(-c3noc([C@@]4(C)CCCc5sc(N)c(C#N)c54)n3)nc(OC[C@@H]3CC4(CC4)CN3C)n2)CC1
(A) 1.89

(Q) Entry to check: CC#CC(=O)N1CCN(c2cc(-c3noc([C@@]4(C)CCCc5sc(N)c(C#N)c54)n3)nc(O[C@@H](C)[C@@H]3CCCN3C)n2)C2CCCC21 (stereo partly drawn)
(A) 2.28

(Q) Field entry: C=CC(=O)N1CCN(c2cc(-c3noc([C@@]4(C)CCCc5sc(N)c(C#N)c54)n3)nc(N3CCCN(CCOC)C[C@@H]3C)c2)CC1
(A) 1.57

(Q) Same for COC/C=C/C(=O)N1CCN(c2cc(-c3noc([C@@]4(C)CCCc5sc(N)c(C#N)c54)n3)nc(O[C@@H](C)[C@@H]3CCCN3C)n2)CC12CC2
(A) 2.06

====

Catalogue of IC50 readings, one per entry.
# Target system: protein-protein interaction between SOS1 and KRAS G12C (Homo sapiens, UniProt P01116, C118S/C51S/C80L/G12C)
# Construct: His6 (N)
# Sequence (P01116 1-169 isoform P01116-2 G12C/C51S/C80L/C118S): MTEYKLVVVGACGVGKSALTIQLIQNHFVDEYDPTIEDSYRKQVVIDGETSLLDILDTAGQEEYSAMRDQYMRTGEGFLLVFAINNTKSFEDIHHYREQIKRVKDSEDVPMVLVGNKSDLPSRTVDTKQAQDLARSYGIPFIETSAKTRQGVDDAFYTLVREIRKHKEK
# Test protocol: KRAS::SOS1 AlphaScreen binding assay
# Experimental conditions: Table 38
All answers are understood in nM, so give the number only.

The examples below pair each entry with its known result.
| Compound | IC50, nM |
| --- | --- |
| CC#CC(=O)N1CCN(c2cc(-c3noc(C4(C)CCCc5sc(N)c(C#N)c54)n3)nc(N3CCN(C)CC3)c2)CC1 (stereo not shown) | 1020 |
| CC#CC(=O)N1CCN(c2cc(-c3noc([C@@]4(C)CCCc5sc(N)c(C#N)c54)n3)nc(O[C@@H](C)[C@@H]3CCCN3C)n2)CC12CC2 | 3 |
| CC#CC(=O)N1CCN(c2cc(O[C@@H](C)[C@@H]3CCCN3C)nc(-c3noc([C@@]4(C)CCCc5sc(N)c(C#N)c54)n3)n2)CC12CC2 | 4 |

Pending compound:
(Q) IC50 lookup needed for CC#CC(=O)N1CCN(c2cc(-c3noc([C@@]4(C)CCCc5sc(N)c(C#N)c54)n3)nc(O[C@@H](C)[C@@H]3CCCN3C)n2)C2CCCC21 (stereo partly shown) , thanks.
(A) 15

====

# Test system: NCI-H358 cells
# Test protocol: NCI-H358 CTG proliferation assay (120 h) (NSCLC)
# Format: cell-based
# Experimental conditions: Homo sapiens
# note: boundary value 7 nM maps to n; IC50 below it maps to y

| Molecule | Class |
| --- | --- |
| C=CC(=O)N1[C@@H](C)CN(c2cc(-c3noc([C@@]4(C)CCCc5sc(N)c(C#N)c54)n3)nc(O[C@@H](C)[C@@H]3CCCN3C)n2)C[C@@H]1C [Ia-62] | y |
| C=CC(=O)N1CCN(c2nc(=O)n(-c3c(C)ccnc3C(C)C)c3nc(-c4c(O)cccc4F)c(F)cc23)[C@@H](C)C1 [sotorasib, reference compound] | n |
| C=CC(=O)N1CCN(c2cc(-c3noc([C@@]4(C)CCCc5sc(N)c(C#N)c54)n3)nc(O[C@@H](C)[C@@H]3CCCN3C)n2)CC1 [Ia-46] | y |
| C=CC(=O)N1C[C@H](C)N(c2cc(-c3noc([C@@]4(C)CCCc5sc(N)c(C#N)c54)n3)nc(O[C@@H](C)[C@@H]3CCCN3C)n2)C[C@H]1C [Ia-133] | n |

(Q) Would you kindly verify if IC50 of C=CC(=O)N1[C@H](C)CN(c2cc(-c3noc([C@@]4(C)CCCc5sc(N)c(C#N)c54)n3)nc(O[C@@H](C)[C@@H]3CCCN3C)n2)C[C@@H]1C [Ia-64] is strictly less than 7 nM?
(A) n

(Q) Likewise for C=CC(=O)N1CCN(c2cc(O[C@@H](C)[C@@H]3CCCN3C)nc(-c3noc([C@@]4(C)CCCc5sc(N)c(C#N)c54)n3)n2)CC12CC2 [Ia-77] ?
(A) y

====

# Target system: KRASG12-dependent Ba/F3 cells (Homo sapiens, UniProt P01116, G12C, cells depend on it)
# Test protocol: Ba/F3 cell model proliferation assay (AlamarBlue, 72 h)
# Assay type: cell-based
# Experimental conditions: Ba/F3 cells transduced with KRASG12C, read-out: IC50 Ba/F3 KRASG12C
Quick list: log10 GI50 per entry.
Please note: log10 values; quantity GI50; unit nM.

Worked cases, answers included:
| Compound | Measurement |
| --- | --- |
| [2H]C([2H])([2H])N1CCN(c2cc(N3CCN(C(=O)C=C)CC3)cc(-c3noc(C4(C)CCCc5sc(N)c(C#N)c54)n3)n2)CC1 (stereo not drawn) | 2.83 |
| C=CC(=O)N1[C@H](C)CC(Oc2cc(O[C@@H](C)[C@@H]3CCCN3C)nc(-c3noc([C@@]4(C)CCCc5sc(N)c(C#N)c54)n3)c2)C[C@H]1C (stereo partly drawn) | 0.85 |
| C=CC(=O)N1CCCN(c2cc(-c3noc([C@@]4(C)CCCc5sc(N)c(C#N)c54)n3)nc(O[C@@H](C)[C@@H]3CCCN3C)n2)[C@@H](C)C1 | 3.54 |
| C=CC(=O)N1CCN(c2cc(-c3noc([C@@]4(C)CCCc5sc(N)c(C#N)c54)n3)nc(OC3C4CC5CN(C)C3C5C4)n2)CC1 (stereo partly drawn) | 2.70 |
| C=CC(=O)N1CC(N2CCN(c3cc(-c4noc([C@@]5(C)CCCc6sc(N)c(C#N)c65)n4)nc(N4CCCN(CCCOC)C[C@@H]4C)n3)CC2)C1 | 3.02 |

(Q) Can you look up the measured log10 GI50 of COC/C=C\C(=O)N1CCN(c2cc(O[C@@H](C)[C@@H]3CCCN3C)nc(-c3noc([C@@]4(C)CCCc5sc(N)c(C#N)c54)n3)n2)CC12CC2 for me?
(A) 2.21

(Q) Repeat for the following compound: C=CC(=O)N1CCC2(C1)CN(c1cc(-c3noc([C@@]4(C)CCCc5sc(N)c(C#N)c54)n3)cc(N3CCCN(C)C[C@@H]3C)n1)C2
(A) 2.98

(Q) Next compound up: C=CC(=O)N1CCN(c2cc(-c3noc([C@@]4(C)CCCc5sc(N)c(C#N)c54)n3)nc(O[C@@H](C)[C@@H]3CCCN3C)n2)C[C@H]1C
(A) 1.18
